- EXPERIMENTAL_TARGET: UniProtKB O15244
- Sequence (O15244 whole entry): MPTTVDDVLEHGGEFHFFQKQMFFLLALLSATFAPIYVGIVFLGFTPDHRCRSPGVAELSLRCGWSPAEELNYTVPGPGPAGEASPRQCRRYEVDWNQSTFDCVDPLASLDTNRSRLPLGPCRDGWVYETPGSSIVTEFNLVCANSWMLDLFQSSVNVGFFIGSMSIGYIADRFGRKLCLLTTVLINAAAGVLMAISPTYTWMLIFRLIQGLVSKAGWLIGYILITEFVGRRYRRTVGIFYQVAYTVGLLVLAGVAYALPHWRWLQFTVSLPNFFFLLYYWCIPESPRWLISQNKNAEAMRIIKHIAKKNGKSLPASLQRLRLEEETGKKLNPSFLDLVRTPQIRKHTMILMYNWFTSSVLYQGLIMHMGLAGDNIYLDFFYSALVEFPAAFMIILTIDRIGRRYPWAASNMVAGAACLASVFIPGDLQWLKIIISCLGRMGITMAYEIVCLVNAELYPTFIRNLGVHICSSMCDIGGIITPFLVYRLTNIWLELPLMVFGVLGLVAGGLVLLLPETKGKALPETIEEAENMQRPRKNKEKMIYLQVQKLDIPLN
- TEST_SUMMARY: OCT2 inhibition assay (14C-TEA uptake, OCT2-transfected MDCKII cells)
- Format: cell-based
pIC50: −log10 of the molar value.
Catalogue of molecules with associated pIC50
RESULT_TYPE: pIC50

                                   molecule  experimental_target  result_type  observed_measurement
0  O=C(NCc1c(F)cc(F)cc1F)c1cn2c(c(O)c1=O)C(=O)N(CC(F)(F)F)[C@H]1COCC[C@H]12     UniProtKB O15244        pIC50                  5.00
1  CCN1C(=O)c2c(O)c(=O)c(C(=O)NCc3ccc(F)c(Cl)c3F)cn2[C@H]2CCOC[C@H]21     UniProtKB O15244        pIC50                  5.00
2  O=C(NCc1c(F)cc(F)cc1F)c1cn2c(c(O)c1=O)C(=O)N(CC(F)(F)F)[C@@H]1COCC[C@@H]12     UniProtKB O15244        pIC50                  5.00
3  CCN1C(=O)c2c(O)c(=O)c(C(=O)NCc3ccc(F)c(Cl)c3F)cn2[C@H]2CCO[C@H]21 [Compound 25b]     UniProtKB O15244        pIC50                  5.00
4  CCN1C(=O)c2c(O)c(=O)c(C(=O)NCc3c(F)cc(F)cc3F)cn2[C@@H]2CCOC[C@H]21     UniProtKB O15244        pIC50                  5.19

---

- EXPERIMENTAL_TARGET: PXR (NR1I2) (Homo sapiens (Human))
- Sequence (O75469 whole entry): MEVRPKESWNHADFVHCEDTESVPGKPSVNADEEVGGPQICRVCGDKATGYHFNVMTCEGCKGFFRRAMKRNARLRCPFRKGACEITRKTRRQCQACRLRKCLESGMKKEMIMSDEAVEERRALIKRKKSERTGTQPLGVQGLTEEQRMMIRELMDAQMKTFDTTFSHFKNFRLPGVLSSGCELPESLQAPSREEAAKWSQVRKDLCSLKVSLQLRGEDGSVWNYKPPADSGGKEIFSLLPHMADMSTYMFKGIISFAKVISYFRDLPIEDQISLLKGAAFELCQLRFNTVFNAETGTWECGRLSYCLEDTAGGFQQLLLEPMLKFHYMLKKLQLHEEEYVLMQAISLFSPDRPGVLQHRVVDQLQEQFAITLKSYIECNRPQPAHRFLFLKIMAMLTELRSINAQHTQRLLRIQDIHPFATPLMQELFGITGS
- TEST_SUMMARY: Human PXR activation assay (luciferase reporter, DPX2 cells)
- Type: cell-based
- EXPERIMENTAL_SETUP: human; 15 uM; DPX2 cells; % Emax relative to rifampicin, adjusted for DMSO background; read-out: PXR % inh at 15 uM (adjusted)
Label scheme for inhibition at 24 h, 15 µM: lower than 40% is n, 40% and above is y.

>>> print(df.to_string())
                        structure_as_smiles  class_label
0  O=C(NCc1c(F)cc(F)cc1F)c1cn2c(c(O)c1=O)C(=O)N[C@H]1CCC[C@H]12            n
1  CCN1C(=O)c2c(O)c(=O)c(C(=O)NCc3ccc(F)c(F)c3)cn2[C@H]2CCOC[C@H]21            n
2  C[C@@H]1OCC[C@H]2[C@@H]1N(C)C(=O)c1c(O)c(=O)c(C(=O)NCc3c(F)cc(F)cc3F)cn12            n
3  O=C(NCc1c(F)cc(F)cc1F)c1cn2c(c(O)c1=O)C(=O)N(CC(F)(F)F)[C@@H]1CCCC[C@H]12            n
4  CC(C)N1C(=O)c2c(O)c(=O)c(C(=O)NCc3c(F)cc(F)cc3F)cn2[C@H]2CCOC[C@H]21            y
5  CCN1C(=O)c2c(O)c(=O)c(C(=O)NCc3c(F)cc(F)cc3F)cn2[C@H]2CCOC[C@H]21            n
6  CCN1C(=O)c2c(O)c(=O)c(C(=O)NCc3c(F)cc(F)cc3F)cn2[C@@H]2CCCC[C@@H]21            y

---

- EXPERIMENTAL_TARGET: PXR (NR1I2) (Homo sapiens (Human))
- TEST_SUMMARY: Human PXR activation assay (luciferase reporter, DPX2 cells)
- Type: cell-based
- EXPERIMENTAL_SETUP: human; 15 uM; DPX2 cells; % Emax relative to rifampicin, adjusted for DMSO background; read-out: PXR % inh at 15 uM (adjusted)
Catalogue of compounds with associated inhibition at 15 µM
RESULT_TYPE: inhibition at 15 µM (%)

                        structure_as_smiles  value_unit  observed_measurement
0  CN1C(=O)c2c(O)c(=O)c(C(=O)NCc3c(F)cc(F)cc3F)cn2[C@@H]2CCC[C@@H]21           %                    49
1  CN1C(=O)c2c(O)c(=O)c(C(=O)NCc3c(F)cc(F)cc3F)cn2[C@H]2CCC[C@H]21           %                    25

---

- TEST_SUMMARY: Pharmacokinetics after oral administration to male SD rats
- Type: in vivo
- EXPERIMENTAL_SETUP: Sprague-Dawley, plasma, rat, oral gavage 0.5 mg/kg, solution, read-out: % F (solution)
RESULT_TYPE: bioavailability (%)

>>> print(df.to_string())
                                   compound  observed_measurement
0  CCN1C(=O)c2c(O)c(=O)c(C(=O)NCc3ccc(F)c(Cl)c3F)cn2[C@H]2CCOC[C@H]21                    15
1  CCN1C(=O)c2c(O)c(=O)c(C(=O)NCc3ccc(F)c(Cl)c3F)cn2[C@H]2CCO[C@H]21 [Compound 25b]                    39
2  C[C@@H]1CCO[C@H]2Cn3cc(C(=O)NCc4ccc(F)cc4F)c(=O)c(O)c3C(=O)N12 [Dolutegravir, reference compound]                    84

---

Catalogue of compounds with associated clearance
- TEST_SUMMARY: Pharmacokinetics after intravenous infusion to male SD rats
- Format: in vivo
- EXPERIMENTAL_SETUP: Sprague-Dawley, plasma, rat, IV infusion 0.5 mg/kg
RESULT_TYPE: clearance (mL/h/kg)

In [3]: df
Out[3]:
                                   compound  result_type  value_unit  observed_measurement
0  CCN1C(=O)c2c(O)c(=O)c(C(=O)NCc3ccc(F)c(Cl)c3F)cn2[C@H]2CCO[C@H]21 [Compound 25b]    clearance     mL/h/kg                   1.3
1  C[C@@H]1CCO[C@H]2Cn3cc(C(=O)NCc4ccc(F)cc4F)c(=O)c(O)c3C(=O)N12 [Dolutegravir, reference compound]    clearance     mL/h/kg                    10
2  CCN1C(=O)c2c(O)c(=O)c(C(=O)NCc3ccc(F)c(Cl)c3F)cn2[C@H]2CCOC[C@H]21 [Compound 39]    clearance     mL/h/kg                   2.3

---

Catalogue of compounds with associated Vd
- TEST_SUMMARY: Pharmacokinetics after intravenous infusion to male SD rats
- Assay type: in vivo
- EXPERIMENTAL_SETUP: Sprague-Dawley, plasma, rat, IV infusion 0.5 mg/kg, read-out: Vss
RESULT_TYPE: Vd (L/kg)

                                   compound  result_type  value_unit  observed_measurement
0  C[C@@H]1CCO[C@H]2Cn3cc(C(=O)NCc4ccc(F)cc4F)c(=O)c(O)c3C(=O)N12 [Dolutegravir, reference compound]           Vd        L/kg                  0.17
1  CCN1C(=O)c2c(O)c(=O)c(C(=O)NCc3ccc(F)c(Cl)c3F)cn2[C@H]2CCOC[C@H]21 [Compound 39]           Vd        L/kg                 0.212
2  CCN1C(=O)c2c(O)c(=O)c(C(=O)NCc3ccc(F)c(Cl)c3F)cn2[C@H]2CCO[C@H]21 [Compound 25b]           Vd        L/kg                 0.141

---

- TEST_SUMMARY: Cytotoxicity (CC50) in MT4 cells, mock-infected
- Format: cell-based
- EXPERIMENTAL_SETUP: human, mock-infected (uninfected)
Catalogue of compounds with associated CC50 at 5 days
RESULT_TYPE: CC50 at 5 days (µM)

>>> print(df.to_string())
                        structure_as_smiles  value_unit  observed_measurement
0  CN1C(=O)c2c(O)c(=O)c(C(=O)NCc3c(F)cc(F)cc3F)cn2[C@H]2COCC[C@]21C          µM                  11.6
1  O=C(NCc1ccc(F)c(Cl)c1F)c1cn2c(c(O)c1=O)C(=O)N(CC(F)(F)F)[C@@H]1COCC[C@@H]12          µM                  48.4
2  O=C(NCc1c(F)cc(F)cc1F)c1cn2c(c(O)c1=O)C(=O)N(CC(F)F)[C@@H]1COCC[C@@H]12          µM                  32.3
